# Particulars: in ethanol, 313.15 K
Assay Metric: solubility (mole fraction)
Answer as a number with no unit attached.

Please list solubility (mole fraction) recorded for the molecule CNC[C@H](O)[C@@H](O)[C@H](O)[C@H](O)CO.Cc1c(Nc2ncccc2C(=O)O)cccc1C(F)(F)F
0.0162

====

# Particulars: in ethanol, 308.15 K
Assay Metric: solubility (mole fraction)
Answer as a number with no unit attached.

Please list solubility (mole fraction) recorded for the compound CNC[C@H](O)[C@@H](O)[C@H](O)[C@H](O)CO.Cc1c(Nc2ncccc2C(=O)O)cccc1C(F)(F)F
0.0113

====

# Particulars: in methanol, 303.15 K
Assay Metric: solubility (mole fraction)
Answer as a number with no unit attached.

Please list solubility (mole fraction) recorded for the compound CNC[C@H](O)[C@@H](O)[C@H](O)[C@H](O)CO.Cc1c(Nc2ncccc2C(=O)O)cccc1C(F)(F)F
0.0448

Origin of the recorded values: BigSolDB 2.1
